Quick reference: tissue uptake at 1 h of the listed items.
# experiment summary: in vivo
# test parameters: male, NODSCID 1L2RγKO, mouse, iv, total radioactivity, Muscle uptake
Hi, when you answer, please include the unit after the number. Thanks!

[
  {
    "compound": "O=C(O)C[C@H](NC(=O)N[C@@H](CCCCNC(=O)[C@H](Cc1c2ccccc2cc2ccccc12)NC(=O)[C@H]1CC[C@H](CNC(=O)CN2CCN(CC(=O)O)CCN(CC(=O)O)CCN(CC(=O)O)CC2)CC1)C(=O)O)C(=O)O [68Ga-HTK03161, metal not drawn]",
    "obs value": "0.15 %ID/g"
  },
  {
    "compound": "O=C(O)CCC[C@H](NC(=O)N[C@@H](CCCCNC(=O)[C@H](Cc1c2ccccc2cc2ccccc12)NC(=O)c1ccc(NC(=O)CN2CCN(CC(=O)O)CCN(CC(=O)O)CCN(CC(=O)O)CC2)cc1)C(=O)O)C(=O)O [68Ga-HTK04041, metal not drawn]",
    "obs value": "0.13 %ID/g"
  }
]

Exercise: Param item = O=C(O)CCC[C@H](NC(=O)N[C@@H](CCCCNC(=O)[C@H](Cc1cccc(I)c1)NC(=O)[C@H]1CC[C@H](CNC(=O)CN2CCN(CC(=O)O)CCN(CC(=O)O)CCN(CC(=O)O)CC2)CC1)C(=O)O)C(=O)O [68Ga-HTK04053, metal not drawn] ; retrieve measured tissue uptake at 1 h.
Solution: 0.05 %ID/g

====

# experiment summary: in vivo
# Parameters: species or system mice
# test parameters: male, NODSCID 1L2RγKO, mouse, iv, total radioactivity, Fat uptake
Assign satisfied whenever tissue uptake at 4 h does not fall below 0.9 %ID/g; assign not satisfied whenever it does.

Exercise: Is it the case that O=C(O)CCC[C@H](NC(=O)N[C@@H](CCCCNC(=O)[C@H](Cc1c2ccccc2cc2ccccc12)NC(=O)[C@H]1CC[C@H](CNC(=O)[C@H](CCCCNC(=O)CN2CCN(CC(=O)O)CCN(CC(=O)O)CCN(CC(=O)O)CC2)NC(=O)CNC(=O)CCCc2ccc(Cl)cc2)CC1)C(=O)O)C(=O)O [177Lu-HTK03153, metal not drawn] has tissue uptake at 4 h reaching or exceeding 0.9 %ID/g?
Solution: satisfied

Exercise: Can COc1ccc(CCCC(=O)NCC(=O)N[C@@H](CCCCNC(=O)CN2CCN(CC(=O)O)CCN(CC(=O)O)CCN(CC(=O)O)CC2)C(=O)NC[C@H]2CC[C@H](C(=O)N[C@@H](Cc3c4ccccc4cc4ccccc34)C(=O)NCCCC[C@H](NC(=O)N[C@@H](CSCC(=O)O)C(=O)O)C(=O)O)CC2)cc1 [177Lu-HTK04048, metal not drawn] be said to have tissue uptake at 4 h at or above 0.9 %ID/g?
Solution: satisfied

Exercise: # bool: tissue uptake at 4 h of O=C(O)CCC[C@H](NC(=O)N[C@@H](CCCCNC(=O)[C@H](Cc1c2ccccc2cc2ccccc12)NC(=O)[C@H]1CC[C@H](CNC(=O)CN2CCN(CC(=O)O)CCN(CC(=O)O)CCN(CC(=O)O)CC2)CC1)C(=O)O)C(=O)O [177Lu-HTK03149, metal not drawn] >= 0.9 %ID/g
Solution: not satisfied

Exercise: For this compound, is measured tissue uptake at 4 h 0.9 %ID/g or higher? COc1ccc(CCCC(=O)NCC(=O)N[C@@H](CCCCNC(=O)CN2CCN(CC(=O)O)CCN(CC(=O)O)CCN(CC(=O)O)CC2)C(=O)NC[C@H]2CC[C@H](C(=O)N[C@@H](Cc3c4ccccc4cc4ccccc34)C(=O)NCCCC[C@H](NC(=O)N[C@@H](CCCC(=O)O)C(=O)O)C(=O)O)CC2)cc1 [177Lu-HTK03170, metal not drawn]
Solution: not satisfied
